- Tested on: Saccharomyces cerevisiae
- PROTOCOL SUMMARY: protein stability index of tFT-peptide fusion (C-terminal peptide) (PSI (0-1 scale)); higher = more stable (slower turnover);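 further: PSI is a weighted mean of sequencing reads over stability bins, variants kept only with over 10 reads, mCherry proximal and sfGFP distal, peptide attached via GGGS linker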
- CONDITIONS: genetic background: wild type; temperature: 30 C
Label yes (1) when protein stability index >= 0.6; otherwise no (0).

Answered examples (6):
>  <RECORD SEQUENCE>
PPSSSPPHTPFP

>  <TARGET SYSTEM>
Saccharomyces cerevisiae

>  <LABEL>
yes (1)

$$$$
>  <RECORD SEQUENCE>
FMVYRIHSSAVM

>  <TARGET SYSTEM>
Saccharomyces cerevisiae

>  <LABEL>
no (0)

$$$$
>  <RECORD SEQUENCE>
GLLGVGDFRTEF

>  <TARGET SYSTEM>
Saccharomyces cerevisiae

>  <LABEL>
yes (1)

$$$$
>  <RECORD SEQUENCE>
PPPPPSSFPFPP

>  <TARGET SYSTEM>
Saccharomyces cerevisiae

>  <LABEL>
yes (1)

$$$$
>  <RECORD SEQUENCE>
HSRAPNNWHRGI

>  <TARGET SYSTEM>
Saccharomyces cerevisiae

>  <LABEL>
yes (1)

$$$$
>  <RECORD SEQUENCE>
TSTGARTMFNPV

>  <TARGET SYSTEM>
Saccharomyces cerevisiae

>  <LABEL>
yes (1)

$$$$

Does the sequence FILLLPSPPPAP have recorded protein stability index that is 0.6 or more? yes (1)

Quick check: does SLLLPPRPPPRV have protein stability index greater than or equal to 0.6? yes (1)

----------
Recorded protein stability index for the following sequences
- Test system: Saccharomyces cerevisiae
- PROTOCOL SUMMARY: protein stability index of tFT-peptide fusion (C-terminal peptide) (PSI (0-1 scale)); higher = more stable (slower turnover)
- CONDITIONS: genetic background: wild type; temperature: 30 C

Record excerpt, results attached:
>  <RECORD SEQUENCE>
ESFFHIKPVLYI

>  <VALUE>
0.647

$$$$
>  <RECORD SEQUENCE>
GLFDLLCHCCWL

>  <VALUE>
0.702

$$$$
>  <RECORD SEQUENCE>
CPRAPKTPISGI

>  <VALUE>
0.635

$$$$
>  <RECORD SEQUENCE>
HRLTFLDTPSGH

>  <VALUE>
0.781

$$$$

Give the reported protein stability index for this sequence. RSFVSRGSILWF 0.723

Retrieve protein stability index measured for LEGLLIRVYITF and print it. 0.288

Tell me measured protein stability index for LSAPPPPPPPSP please. 0.703

----------
- System: Saccharomyces cerevisiae
- PROTOCOL SUMMARY: protein stability index of tFT-peptide fusion (C-terminal peptide) (PSI (0-1 scale)); higher = more stable (slower turnover)
- CONDITIONS: genetic background: wild type; temperature: 37 C
MEASUREMENT NAME: protein stability index

# annotated cases, reported protein stability index shown
>  <RECORD SEQUENCE>
SDLQVMKLRSVC

>  <protein stability index>
0.456

$$$$
>  <RECORD SEQUENCE>
DLLKAILKIKSL

>  <protein stability index>
0.162

$$$$
>  <RECORD SEQUENCE>
FRCRFLLPFYSV

>  <protein stability index>
0.603

$$$$
>  <RECORD SEQUENCE>
SFVCFSYYIVNI

>  <protein stability index>
0.548

$$$$
>  <RECORD SEQUENCE>
AFVVPLFLCCCG

>  <protein stability index>
0.235

$$$$

Please indicate recorded protein stability index of SISVQCSMLRVL measured with Saccharomyces cerevisiae. 0.387

Look up Saccharomyces cerevisiae data: protein stability index of WFCYFSLYVFLL , then report it. 0.153

Determine reported protein stability index for RKWLFFRSWRYV ; test system: Saccharomyces cerevisiae. 0.0912

# lookup: Saccharomyces cerevisiae protein stability index, key = PYVHPFRCYWVL 0.181

Give protein stability index; test system Saccharomyces cerevisiae; sequence LCLPLYIRILSF 0.126

----------
We begin with a simple list: items and their reported protein stability index.
- Test system: Saccharomyces cerevisiae
- PROTOCOL SUMMARY: protein stability index of tFT-peptide fusion (C-terminal peptide) (PSI (0-1 scale)); higher = more stable (slower turnover)
- CONDITIONS: genetic background: wild type; temperature: 30 C
Please reply with the number alone, leaving off any unit.

Illustrative cases are given below, each with its answer.
>  <RECORD SEQUENCE>
GNELLINRVKPR

>  <TARGET SYSTEM>
Saccharomyces cerevisiae

>  <VALUE>
0.698

$$$$
>  <RECORD SEQUENCE>
IAMVTLPRLNKS

>  <TARGET SYSTEM>
Saccharomyces cerevisiae

>  <VALUE>
0.718

$$$$
>  <RECORD SEQUENCE>
LPRSLSGCGAGV

>  <TARGET SYSTEM>
Saccharomyces cerevisiae

>  <VALUE>
0.711

$$$$
>  <RECORD SEQUENCE>
GRGLRWSWGCGG

>  <TARGET SYSTEM>
Saccharomyces cerevisiae

>  <VALUE>
0.693

$$$$

Hello, please tell me recorded protein stability index for this one: KQSNRYPCIHRS 0.705

Find the measured protein stability index of KKKTIKKTIKNQ and report it. 0.702

Return reported protein stability index. Input sequence: SPRGRGARRGRI 0.705

----------
- Tested on: Saccharomyces cerevisiae
- PROTOCOL SUMMARY: protein stability index of tFT-peptide fusion (C-terminal peptide) (PSI (0-1 scale)); higher = more stable (slower turnover)
- CONDITIONS: genetic background: wild type; temperature: 30 C
Some sequences, each annotated with its measured protein stability index.
Reply briefly: the number, and no unit.

Would you please look over these solved cases?
>  <RECORD SEQUENCE>
PPLGPARNYPSL

>  <VALUE>
0.673

$$$$
>  <RECORD SEQUENCE>
PLPSEKAPTLLL

>  <VALUE>
0.583

$$$$

Retrieve protein stability index measured for PRPRPRSGWILL and print it. 0.696

Hello, please tell me recorded protein stability index for this one: GASPLPSPADHL 0.717

----------
- System: Saccharomyces cerevisiae
- PROTOCOL SUMMARY: protein stability index of tFT-peptide fusion (C-terminal peptide) (PSI (0-1 scale)); higher = more stable (slower turnover)
- CONDITIONS: genetic background: das1 deletion; temperature: 30 C
Classes based on protein stability index: I: < 0.3; II: ≥ 0.3 and < 0.6; III: ≥ 0.6

# example entries with known answers
>  <RECORD SEQUENCE>
VYKSTHKIYILT

>  <LABEL>
II

$$$$
>  <RECORD SEQUENCE>
VPIIVVVYVFVT

>  <LABEL>
I

$$$$
>  <RECORD SEQUENCE>
FVLLTFLFFWQF

>  <LABEL>
II

$$$$
>  <RECORD SEQUENCE>
LVFAFFLLSFFI

>  <LABEL>
II

$$$$
>  <RECORD SEQUENCE>
PPQDQAPVGVND

>  <LABEL>
III

$$$$

Switching to the query record.
Which of the defined bands does the recorded protein stability index of LEGLLIRVYITF sit within? I

----------
The following sequences are shown together with reported protein stability index values.
- Test system: Saccharomyces cerevisiae
- PROTOCOL SUMMARY: protein stability index of tFT-peptide fusion (C-terminal peptide) (PSI (0-1 scale)); higher = more stable (slower turnover)
- CONDITIONS: genetic background: wild type; temperature: 30 C
Keep it simple and answer with nothing but the number.

Previously resolved entries follow.
>  <RECORD SEQUENCE>
LLSRCAGLMWSF

>  <protein stability index>
0.679

$$$$
>  <RECORD SEQUENCE>
TGKTHSGNKYER

>  <protein stability index>
0.684

$$$$

Shifting focus to the sequence that follows.
Respond only with protein stability index recorded for KTGRPSRRGSTT 0.704

----------
- Tested on: Saccharomyces cerevisiae
- PROTOCOL SUMMARY: protein stability index of tFT-peptide fusion (C-terminal peptide) (PSI (0-1 scale)); higher = more stable (slower turnover)
- CONDITIONS: genetic background: wild type; temperature: 30 C
MEASUREMENT NAME: protein stability index
Just the number, please, no unit after it.

>  <RECORD SEQUENCE>
TYQRTHKTATQF

>  <TARGET SYSTEM>
Saccharomyces cerevisiae

>  <protein stability index>
0.681

$$$$
>  <RECORD SEQUENCE>
VGEGLGWGGQGG

>  <TARGET SYSTEM>
Saccharomyces cerevisiae

>  <protein stability index>
0.712

$$$$
>  <RECORD SEQUENCE>
STLEKTFRVAKR

>  <TARGET SYSTEM>
Saccharomyces cerevisiae

>  <protein stability index>
0.694

$$$$
>  <RECORD SEQUENCE>
IRPWPLDPPPGR

>  <TARGET SYSTEM>
Saccharomyces cerevisiae

>  <protein stability index>
0.78

$$$$
>  <RECORD SEQUENCE>
SPSPLSHSPLAF

>  <TARGET SYSTEM>
Saccharomyces cerevisiae

>  <protein stability index>
0.647

$$$$

State its protein stability index: SGWRGVVGRGGR 0.625

Using the record for AKWAWPAIVGGC , state its measured protein stability index. 0.722
